# key: entry, value: remaining at 0.5 h, 1 μM
Assay: in vitro
Details: mouse, microsomes, pH 7.4, % remaining at 30 min without NADPH

COMPOUND | remaining at 0.5 h, 1 μM / %
CC(C)=CCC/C(C)=C/CC/C(C)=C/CC[C@]1(C)CCc2cc(O)cc(C)c2O1 | 100
CC(C)NCC(O)COc1cccc2ccccc12 (centres unmarked) | 107

* * *

Experiment: in vitro
Details: mouse, microsomes, pH 7.4

COMPOUND | UNIT ABBREV | half-life at 1 μM
CC(C)NCC(O)COc1cccc2ccccc12 (stereo not shown) [Propranolol] | min | 25
